- TGT: Nicotinic acetylcholine receptor (Rattus leucopus, UniProt Q62594)
- Sequence (Q62594 whole entry): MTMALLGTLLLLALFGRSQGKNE
pKi: −log10 of the molar value. Counter-ions that a name gives are not always drawn.
MEASURED_METRIC: pKi

Entry CC(NC(C)(C)C)C(=O)c1cccc(Cl)c1 (stereo unspecified) [BUPROPION HYDROCHLORIDE] ; assay system Nicotinic acetylcholine receptor (Rattus leucopus, UniProt Q62594); pKi recorded at < 5.00

Entry source: BindingDB's records for doi:10.1124/jpet.302.2.687
